# SYSTEM UNDER TEST: BChE (Homo sapiens, UniProt P06276)
# Construct: BChE (from human serum, B4186)
# Sequence (P06276 29-602): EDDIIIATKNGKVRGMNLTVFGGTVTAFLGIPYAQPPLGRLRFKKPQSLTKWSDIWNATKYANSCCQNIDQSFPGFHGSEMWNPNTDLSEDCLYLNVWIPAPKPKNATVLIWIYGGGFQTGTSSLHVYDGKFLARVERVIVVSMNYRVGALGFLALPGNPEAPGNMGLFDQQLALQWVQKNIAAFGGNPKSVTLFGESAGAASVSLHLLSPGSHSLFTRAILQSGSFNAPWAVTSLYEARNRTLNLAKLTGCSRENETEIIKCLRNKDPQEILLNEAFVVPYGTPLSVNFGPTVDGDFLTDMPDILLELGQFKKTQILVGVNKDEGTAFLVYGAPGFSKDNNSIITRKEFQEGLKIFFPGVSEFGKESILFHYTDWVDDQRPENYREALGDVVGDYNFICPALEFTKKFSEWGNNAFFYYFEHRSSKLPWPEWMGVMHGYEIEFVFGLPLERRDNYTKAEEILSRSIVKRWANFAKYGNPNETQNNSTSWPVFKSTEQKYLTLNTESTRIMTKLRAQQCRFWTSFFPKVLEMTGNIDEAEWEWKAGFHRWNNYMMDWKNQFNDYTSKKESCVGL
# EXPERIMENT DESCRIPTION: Enzyme kinetic study with BChE (substrate BTC)
# MEASUREMENT SETUP: mean ± SEM of three experiments; read-out: Kic (inhibition constant for the competitive part of inhibition)
# Description: Kinetic studies were performed in the same manner as the determination of ChE inhibition as previously described. […] The Vmax and Km values of the Michaelis–Menten kinetics were calculated by nonlinear regression from substrate–velocity curves using Graphpad Prism 6 (GraphPad Software, San Diego, CA, USA) (Table S1). […]
OBSERVED PROPERTY: Ki

Identify the reported Ki for the following entry. COc1ccc(CCN2CCCC(O)(CNCc3cc(C)ccc3C)C2=O)cc1 (centres unmarked) [Compound 18] 0.93 µM

Answer with the recorded Ki for the compound listed here: COc1ccccc1CN1CCCC(CN(CCN(C)C)C(=O)C(=O)c2ccccc2)C1 (centres unmarked) [Compound 8] 0.88 µM

----------
For each record, write down the corresponding AChE IR (inhibition ratio).
# SYSTEM UNDER TEST: AChE (from human erythrocytes) (Homo sapiens)
# Construct: AChE (from human erythrocytes, C0663); purchased Sigma-Aldrich C0663; host or cells: human erythrocytes
# Sequence (P22303 other isoform, or with tags, fused parts or gaps): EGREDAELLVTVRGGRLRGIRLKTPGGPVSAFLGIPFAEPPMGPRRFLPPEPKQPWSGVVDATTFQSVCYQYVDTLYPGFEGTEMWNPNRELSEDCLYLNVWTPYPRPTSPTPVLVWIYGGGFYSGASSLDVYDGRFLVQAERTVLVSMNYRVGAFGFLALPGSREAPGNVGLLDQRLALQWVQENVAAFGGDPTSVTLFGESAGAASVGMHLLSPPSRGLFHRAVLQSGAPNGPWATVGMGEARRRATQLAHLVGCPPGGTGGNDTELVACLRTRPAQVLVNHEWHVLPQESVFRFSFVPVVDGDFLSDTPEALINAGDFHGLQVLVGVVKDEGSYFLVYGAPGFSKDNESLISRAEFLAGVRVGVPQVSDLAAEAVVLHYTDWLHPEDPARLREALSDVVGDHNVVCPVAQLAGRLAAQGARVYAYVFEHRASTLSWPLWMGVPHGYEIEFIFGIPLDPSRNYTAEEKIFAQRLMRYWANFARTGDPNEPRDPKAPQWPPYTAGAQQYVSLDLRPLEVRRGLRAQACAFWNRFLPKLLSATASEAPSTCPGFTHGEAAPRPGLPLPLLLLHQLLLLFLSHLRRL
# EXPERIMENT DESCRIPTION: biochemical
# Assay type: biochemical
# MEASUREMENT SETUP: at 10 μM; mean ± SEM of three experiments
# Procedure: Modified Ellman’s assay was performed to measure the inhibitory effects of purchased compounds on ChEs using a Thermo Fisher Scientific spectrophotometer. AChE (from human erythrocytes, C0663), BChE (from human serum, B4186), 5,5-dithiobis-(2-nitrobenzoic acid) (DTNB, D218200), acetylthiocholine iodide (ATC, A5751), and butyrylthiocholine iodide (BTC, B3253) were purchased from Sigma-Aldrich (St. Louis, MO, USA). […]
Please state the figure in %; there is no need to write the unit.

Quote AChE IR (inhibition ratio) reported for O=C(O)C(c1c[nH]c2ccccc12)N1CCN(c2ccccn2)CC1 (centres unmarked) please. 0.6

Check the records and state AChE IR (inhibition ratio) for `Cc1noc(C)c1CN(C)Cc1ccn(S(=O)(=O)c2ccccc2)c1` 0.6

Determine from records and report AChE IR (inhibition ratio) for `COc1cccc(N(CC(=O)N2CCN(Cc3ccccc3)CC2)S(=O)(=O)c2ccccc2)c1` 11.3

Annotate the compound `Cc1nc(-c2cccc(F)c2)n(CCC(=O)NCCCc2ccccc2)c(=O)c1CCO` with its measured AChE IR (inhibition ratio). −1.5

Please give measured AChE IR (inhibition ratio) of the following entry: `COCCN1C(=O)N(CCc2ccccc2)C(=O)C12CCN(Cc1ccccc1)CC2` 16.0

Assign AChE IR (inhibition ratio) to the following record: `Cc1cc(C)cc(N(CC(=O)N2CCN(Cc3ccccc3)CC2)S(=O)(=O)c2ccccc2)c1` 2.9

State its AChE IR (inhibition ratio) for this compound: COc1cccc(S(=O)(=O)NCC2CCCN(Cc3cc4ccccc4o3)C2)c1 (centres unmarked) 38.7

Identify measured AChE IR (inhibition ratio) corresponding to O=C(CC1NC(N2CCN(Cc3ccccc3)CC2)=NC1=O)Nc1ccccc1 (centres unmarked) 7.8

----------
# SYSTEM UNDER TEST: BChE (from human serum) (Homo sapiens)
# Construct: BChE (from human serum, B4186); purchased Sigma-Aldrich B4186; host or cells: human serum
# Sequence (P06276 29-602): as the sequence (P06276 29-602) above
# EXPERIMENT DESCRIPTION: biochemical
# Type: biochemical
# MEASUREMENT SETUP: at 10 μM; mean ± SEM of three experiments
OBSERVED PROPERTY: BChE IR (inhibition ratio) (%)
# unit: % | format: bare number

Write down BChE IR (inhibition ratio) measured for item `Cc1nc(-c2cccc(F)c2)n(CCC(=O)NCCCc2ccccc2)c(=O)c1CCO` 8.5

Supply BChE IR (inhibition ratio) value. Item: `Cc1cc(C)cc(N(CC(=O)N2CCN(Cc3ccccc3)CC2)S(=O)(=O)c2ccccc2)c1` 11.8

For `Cc1ccc(S(=O)(=O)Nc2nc3ccccc3nc2NCc2ccc(F)cc2)cc1C` , write its BChE IR (inhibition ratio). 7.2

# return recorded BChE IR (inhibition ratio) for input `Cc1noc(C)c1CN(C)Cc1ccn(S(=O)(=O)c2ccccc2)c1` 16.3

Please report BChE IR (inhibition ratio) for the following compound: CC1=NC2C(SC(=S)N2Cc2ccco2)C(=O)N1CC(=O)NCCc1ccccc1 (stereo not drawn) −1.8

Report measured BChE IR (inhibition ratio); entry is `CCN(Cc1ccccc1)C(=O)CCc1nc2ccsc2c(=O)n1Cc1ccccc1` 3.4

// Input: COc1cccc(S(=O)(=O)NCC2CCCN(Cc3cc4ccccc4o3)C2)c1 (stereo not drawn) . Output its BChE IR (inhibition ratio) only. 26.4

Determine from records and report BChE IR (inhibition ratio) for O=C(CC1NC(N2CCN(Cc3ccccc3)CC2)=NC1=O)Nc1ccccc1 (stereo not drawn) 9.9

Give the value of BChE IR (inhibition ratio) reported for the following: O=C(NC1(C(F)(F)F)N=C(c2ccccc2)N(Cc2ccccc2)C1=O)c1ccco1 (stereo not drawn) 14.8

Quote BChE IR (inhibition ratio) reported for `COc1cccc(N(CC(=O)N2CCN(Cc3ccccc3)CC2)S(=O)(=O)c2ccccc2)c1` please. 20.1

For O=C(O)C(c1c[nH]c2ccccc12)N1CCN(c2ccccn2)CC1 (stereo not drawn) , write its BChE IR (inhibition ratio). −0.6

Indicate the recorded BChE IR (inhibition ratio) value for this compound: `COCCN1C(=O)N(CCc2ccccc2)C(=O)C12CCN(Cc1ccccc1)CC2` 15.5
